Entry source: ChEMBL document CHEMBL5512632

- System: Huh-7
- method-description: Cytotoxicity against human Huh-7 cells assessed as inhibition of cell growth incubated for 24 hrs by MTT reagent based microplate reader assay
- Type: functional
- study-conditions: Huh-7, 24 h
quantity-measured: IC50 (µM)
The reply should be a number in µM, with the unit left off.

Task item: Let me know recorded IC50 for CCCS(=O)(=O)C12OC1C(=O)c1c(OC)ccc(OC)c1C2=O (stereo unspecified) , thanks.
Reply: 7.68

* * *

- System: MCF7
- method-description: Antiproliferative activity against human MCF7 cells assessed as inhibition of cell growth incubated upto 120 hrs by MTS assay
- Format: functional, cell-based
- study-conditions: MCF7, 120 h
quantity-measured: IC50 (µM)
The reply should be a number in µM, with the unit left off.

Task item: Let me know recorded IC50 for COc1ccc(OC)c2c1C(=O)C(Cl)=C(Cl)C2=O , thanks.
Reply: 5.5

* * *

- System: HeLa
- method-description: Antiproliferative activity against human HeLa cells assessed as inhibition of cell growth incubated for 24 hrs by sulforhodamine B assay
- Format: functional, cell-based
quantity-measured: pIC50
pIC50 here: minus log base 10 of the concentration, concentration in moles per litre.

Task item: Let me know recorded pIC50 for O=C1C(Cl)=C(Nc2ccc(O)cc2)C(=O)c2ccccc21 , thanks.
Reply: 5.49

* * *

- Tested on: HepG2
- method-description: Cytotoxicity against human HepG2 cells assessed as inhibition of cell growth incubated upto 72 hrs by MTT assay
- Type: functional, cell-based
- study-conditions: HepG2, 72 h
quantity-measured: pIC50
pIC50 here: minus log base 10 of the concentration, concentration in moles per litre.

Task item: Let me know recorded pIC50 for CC(C)=CCC/C(C)=C/CC/C(C)=C/CC1=C(O)C(=O)c2ccccc2C1=O , thanks.
Reply: 4.85

* * *

- Test system: SW1353
- method-description: Antiproliferative activity against human SW1353 cells assessed as inhibition of cell growth incubated for 24 hrs by CellTiter-Glo luminescent assay
- Type: functional, cell-based
- study-conditions: SW1353, 24 h
quantity-measured: pIC50
pIC50 here: minus log base 10 of the concentration, concentration in moles per litre.

Task item: Let me know recorded pIC50 for CC(C)=CC[C@@H](OC(=O)C1CC1)C1=CC(=O)c2c(O)ccc(O)c2C1=O , thanks.
Reply: 5.92

* * *

- Test system: MDA-MB-231
- method-description: Antiproliferative activity against human MDA-MB-231 cells assessed as inhibition of cell growth incubated for 72 hrs by trypan blue exclusion assay
- Type: functional, cell-based
- study-conditions: MDA-MB-231, 72 h
quantity-measured: pIC50
pIC50 here: minus log base 10 of the concentration, concentration in moles per litre.

Task item: Give pIC50; test system MDA-MB-231; compound COC1=CC(=O)c2ccccc2C1=O
Reply: 5.12

* * *

- Test system: HeLa
- method-description: Antiproliferative activity against human HeLa cells assessed as reduction in cell growth incubated for 24 hrs by MTT assay
- Type: functional, cell-based
quantity-measured: pIC50
pIC50 here: minus log base 10 of the concentration, concentration in moles per litre.

Task item: Let me know recorded pIC50 for O=C1C(O)=C(C(C2=C(O)C(=O)c3ccccc3C2=O)c2ccc(C(F)(F)F)cc2)C(=O)c2ccccc21 , thanks.
Reply: 4.46

* * *

- Tested on: J774.2
- method-description: Antiproliferative activity against mouse J774.2 cells assessed as inhibition of cell growth incubated for 72 hrs by MTT assay
- Type: functional, cell-based
- study-conditions: J774.2, 72 h
quantity-measured: pIC50
pIC50 here: minus log base 10 of the concentration, concentration in moles per litre.

Task item: Give pIC50; test system J774.2; molecule O=C1C2=C(C(=O)c3ccccc31)C(CCc1ccccc1)c1sc(=O)[nH]c1S2 (stereo unspecified)
Reply: 5.02
